- assay_system: Bifunctional epoxide hydrolase 2 (Homo sapiens, UniProt P34913)
- Sequence (P34913 whole entry): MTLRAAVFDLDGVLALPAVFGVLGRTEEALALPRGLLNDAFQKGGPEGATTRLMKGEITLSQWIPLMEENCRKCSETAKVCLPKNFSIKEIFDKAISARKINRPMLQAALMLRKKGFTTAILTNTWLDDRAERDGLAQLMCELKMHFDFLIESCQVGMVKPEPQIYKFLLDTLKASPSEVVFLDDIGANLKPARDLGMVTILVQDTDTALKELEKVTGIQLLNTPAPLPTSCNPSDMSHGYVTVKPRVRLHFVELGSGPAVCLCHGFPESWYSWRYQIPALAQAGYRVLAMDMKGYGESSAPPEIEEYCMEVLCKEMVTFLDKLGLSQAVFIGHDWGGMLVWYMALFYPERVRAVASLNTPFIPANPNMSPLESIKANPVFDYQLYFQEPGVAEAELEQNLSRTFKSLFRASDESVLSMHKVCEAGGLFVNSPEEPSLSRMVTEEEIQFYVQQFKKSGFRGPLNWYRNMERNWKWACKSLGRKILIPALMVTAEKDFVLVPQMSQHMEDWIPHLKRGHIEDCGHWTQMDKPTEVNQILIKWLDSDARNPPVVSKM
- assay_name: Inhibition of human sEH assessed as 6-methoxy-2-naphthaldehyde generation preincubated for 10 before addition of cyano(2-methyl-oxynaphthalen-6-yl)methyl trans-(3-phenyloxyran-2-yl) methyl carbonate by fluorescence analysis
Dear colleague, classification is by IC50, with ranges listed here: small value (below 20 nM), mid value (20 nM to below 200 nM), large value (200 nM or more)

[
  {
    "input_smiles": "Cc1ccc(S(=O)(=O)N2CCC(C(=O)N[C@H]3C[C@@H]3c3ccccc3)CC2)c(C)c1",
    "assay_system": "Bifunctional epoxide hydrolase 2 (Homo sapiens, UniProt P34913)",
    "assigned_label": "large value"
  },
  {
    "input_smiles": "Cc1ccc(S(=O)(=O)N2CCC(C(=O)Nc3ccc([N+](=O)[O-])cc3)CC2)c(C)c1",
    "assay_system": "Bifunctional epoxide hydrolase 2 (Homo sapiens, UniProt P34913)",
    "assigned_label": "small value"
  },
  {
    "input_smiles": "Cc1ccc(S(=O)(=O)N2CCC(C(=O)Nc3ccc(OC(F)(F)F)cc3)CC2)c(C)c1",
    "assay_system": "Bifunctional epoxide hydrolase 2 (Homo sapiens, UniProt P34913)",
    "assigned_label": "mid value"
  },
  {
    "input_smiles": "Cc1ccc(S(=O)(=O)N2CCC(C(=O)Nc3ccc(F)cc3)CC2)c(C)c1",
    "assay_system": "Bifunctional epoxide hydrolase 2 (Homo sapiens, UniProt P34913)",
    "assigned_label": "large value"
  },
  {
    "input_smiles": "Cc1ccc(S(=O)(=O)N2CCC(C(=O)Nc3ccc(N4CCOCC4)cc3)CC2)c(C)c1",
    "assay_system": "Bifunctional epoxide hydrolase 2 (Homo sapiens, UniProt P34913)",
    "assigned_label": "large value"
  },
  {
    "input_smiles": "Cc1ccc(S(=O)(=O)N2CCC(C(=O)Nc3ccc(Cl)c(Cl)c3)CC2)c(C)c1",
    "assay_system": "Bifunctional epoxide hydrolase 2 (Homo sapiens, UniProt P34913)",
    "assigned_label": "mid value"
  },
  {
    "input_smiles": "Cc1ccc(S(=O)(=O)N2CCC(C(=O)NC34CC5CC(CC(C5)C3)C4)CC2)c(C)c1",
    "assay_system": "Bifunctional epoxide hydrolase 2 (Homo sapiens, UniProt P34913)",
    "assigned_label": "small value"
  },
  {
    "input_smiles": "Cc1ccc(S(=O)(=O)N2CCC(C(=O)Nc3ccc(N4CCCCC4)c(C(N)=O)c3)CC2)c(C)c1",
    "assay_system": "Bifunctional epoxide hydrolase 2 (Homo sapiens, UniProt P34913)",
    "assigned_label": "mid value"
  }
]
